Source of measurements: the NIST ThermoML archive (doi:10.1016/j.fluid.2019.03.023)

- ASSAY: activity coefficient (dimensionless); of the first substance listed, at infinite dilution; xn = mol fraction of the nth substance listed
- CONDITION: 343.15 K; 101.33 kPa; Liquid; Chromatography; x1 = 0
Could you please classify the records by activity coefficient using these ranges: low range = under 0.5, mid range = from 0.5 up to 1, high range = 1 and over

# MOLECULE, ASSIGNED_LABEL
measured = [
    ("C#CCCCCC [1-heptyne] + CCCCCCCCCCCCCC[P+](CCCCCC)(CCCCCC)CCCCCC.N#C[N-]C#N", "mid range"),
    ("CC(C)=O [acetone] + CCCCCCCCCCCCCC[P+](CCCCCC)(CCCCCC)CCCCCC.N#C[N-]C#N", "low range"),
    ("CO [methanol] + CCCCCCCCCCCCCC[P+](CCCCCC)(CCCCCC)CCCCCC.N#C[N-]C#N", "low range"),
    ("C=CCCCC [hex-1-ene] + CCCCCCCCCCCCCC[P+](CCCCCC)(CCCCCC)CCCCCC.N#C[N-]C#N", "high range"),
    ("CCCCCC [hexane] + CCCCCCCCCCCCCC[P+](CCCCCC)(CCCCCC)CCCCCC.N#C[N-]C#N", "high range"),
    ("C1CCOC1 [tetrahydrofuran] + CCCCCCCCCCCCCC[P+](CCCCCC)(CCCCCC)CCCCCC.N#C[N-]C#N", "low range"),
    ("CCCCCCCCC [nonane] + CCCCCCCCCCCCCC[P+](CCCCCC)(CCCCCC)CCCCCC.N#C[N-]C#N", "high range"),
    ("Cc1ccccc1 [toluene] + CCCCCCCCCCCCCC[P+](CCCCCC)(CCCCCC)CCCCCC.N#C[N-]C#N", "mid range"),
    ("CCCCC [pentane] + CCCCCCCCCCCCCC[P+](CCCCCC)(CCCCCC)CCCCCC.N#C[N-]C#N", "high range"),
    ("CCCCCCC [heptane] + CCCCCCCCCCCCCC[P+](CCCCCC)(CCCCCC)CCCCCC.N#C[N-]C#N", "high range"),
]

----------
Some compounds, each annotated with its measured activity coefficient.
- ASSAY: activity coefficient (dimensionless); of the first substance listed, at infinite dilution; xn = mol fraction of the nth substance listed
- CONDITION: 323.15 K; 101.33 kPa; Liquid; Chromatography; x1 = 0

# COMPOUND, activity coefficient
measured = [
    ("CC#N [acetonitrile] + CCCCCCCCCCCCCC[P+](CCCCCC)(CCCCCC)CCCCCC.N#C[N-]C#N", 0.6),
    ("CCCCCCC [heptane] + CCCCCCCCCCCCCC[P+](CCCCCC)(CCCCCC)CCCCCC.N#C[N-]C#N", 1.43),
    ("CCCCCCCCCC [decane] + CCCCCCCCCCCCCC[P+](CCCCCC)(CCCCCC)CCCCCC.N#C[N-]C#N", 2.34),
    ("Cc1ccc(C)cc1 [1,4-dimethylbenzene] + CCCCCCCCCCCCCC[P+](CCCCCC)(CCCCCC)CCCCCC.N#C[N-]C#N", 0.64),
    ("CCC(C)=O [butanone] + CCCCCCCCCCCCCC[P+](CCCCCC)(CCCCCC)CCCCCC.N#C[N-]C#N", 0.448),
]

----------
- ASSAY: activity coefficient (dimensionless); of the first substance listed, at infinite dilution; xn = mol fraction of the nth substance listed
- CONDITION: 313.15 K; 101.33 kPa; Liquid; Chromatography; x1 = 0
Criterion: activity coefficient meeting or surpassing 1. Met: T. Not met: F.

# MOLECULE, ASSIGNED_LABEL
records = [
    ("CCCCCC [hexane] + CCCCCCCCCCCCCC[P+](CCCCCC)(CCCCCC)CCCCCC.N#C[N-]C#N", "T"),
    ("CCc1ccccc1 [ethylbenzene] + CCCCCCCCCCCCCC[P+](CCCCCC)(CCCCCC)CCCCCC.N#C[N-]C#N", "F"),
    ("CCCCCCCCC [nonane] + CCCCCCCCCCCCCC[P+](CCCCCC)(CCCCCC)CCCCCC.N#C[N-]C#N", "T"),
    ("CCO [ethanol] + CCCCCCCCCCCCCC[P+](CCCCCC)(CCCCCC)CCCCCC.N#C[N-]C#N", "F"),
    ("CC(C)=O [acetone] + CCCCCCCCCCCCCC[P+](CCCCCC)(CCCCCC)CCCCCC.N#C[N-]C#N", "F"),
    ("c1ccsc1 [thiophene] + CCCCCCCCCCCCCC[P+](CCCCCC)(CCCCCC)CCCCCC.N#C[N-]C#N", "F"),
    ("C#CCCCCC [1-heptyne] + CCCCCCCCCCCCCC[P+](CCCCCC)(CCCCCC)CCCCCC.N#C[N-]C#N", "F"),
    ("CCCCCCCCCC [decane] + CCCCCCCCCCCCCC[P+](CCCCCC)(CCCCCC)CCCCCC.N#C[N-]C#N", "T"),
    ("CCCCCCC [heptane] + CCCCCCCCCCCCCC[P+](CCCCCC)(CCCCCC)CCCCCC.N#C[N-]C#N", "T"),
    ("CC#N [acetonitrile] + CCCCCCCCCCCCCC[P+](CCCCCC)(CCCCCC)CCCCCC.N#C[N-]C#N", "F"),
    ("C=CCCCCCCCC [1-decene] + CCCCCCCCCCCCCC[P+](CCCCCC)(CCCCCC)CCCCCC.N#C[N-]C#N", "T"),
    ("C1=CCCCC1 [cyclohexene] + CCCCCCCCCCCCCC[P+](CCCCCC)(CCCCCC)CCCCCC.N#C[N-]C#N", "F"),
]
